# assayExplanation: recombinant barcode read abundance after kanamycin selection (control-corrected) (log10(CPM+1)); higher = more efficient recombination; sequences stand for … in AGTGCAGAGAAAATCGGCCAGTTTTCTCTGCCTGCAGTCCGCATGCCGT…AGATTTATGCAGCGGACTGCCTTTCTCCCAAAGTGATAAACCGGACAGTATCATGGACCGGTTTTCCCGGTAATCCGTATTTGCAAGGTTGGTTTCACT; site = the 11-nt target;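 further: IS621 recombinase and bridge RNA in Escherichia coli cells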
Could you label it label 1 if measured recombinant barcode read abundance (log10) is 0.3 or higher, and label 0 otherwise?

Could you verify whether the entry GACACGTCTTGGGTTCTAACCTGTTGCCT (site GACACGTCTAG) shows recombinant barcode read abundance (log10) of no less than 0.3? label 1

Could you verify whether the entry GAAAAGGCTTGGGTTCTAACCTGTTGCCT (site GAAAGGGCTAG) shows recombinant barcode read abundance (log10) of no less than 0.3? label 0

Could you verify whether the entry TCCCAGTCTTGGGTTCTAACCTGTTGCGT (site TCCCAGTCTAA) shows recombinant barcode read abundance (log10) of no less than 0.3? label 1

Could you verify whether the entry AGCGCGACTTGGGTTCTAACCTGTTGCCT (site AGGACGACTAG) shows recombinant barcode read abundance (log10) of no less than 0.3? label 1

Could you verify whether the entry AAGCTTGCTTGGGTTCTAACCTGTTGCCT (site CGATGGACTCA) shows recombinant barcode read abundance (log10) of no less than 0.3? label 1

Could you verify whether the entry AGTCTAGCTTGGGTTCTAACCTGTTGCCG (site AGTCTAGCTTG) shows recombinant barcode read abundance (log10) of no less than 0.3? label 1

Could you verify whether the entry TTGGTCACTTGGGTTCTAACCTGTTGCCA (site GGAAGGCCTAA) shows recombinant barcode read abundance (log10) of no less than 0.3? label 0

Could you verify whether the entry CGGCCGACTTGGGTTCTAACCTGTTGCGG (site CGGCCGACTCC) shows recombinant barcode read abundance (log10) of no less than 0.3? label 1

Could you verify whether the entry TAGCCGTCTTGGGTTCTAACCTGTTGCAC (site TAGACGACTGT) shows recombinant barcode read abundance (log10) of no less than 0.3? label 0

Could you verify whether the entry TGTTACCCTTGGGTTCTAACCTGTTGCCT (site TGGTACCCTAG) shows recombinant barcode read abundance (log10) of no less than 0.3? label 0

Could you verify whether the entry TACTTGCCTTGGGTTCTAACCTGTTGCCT (site TAATTGCCTAG) shows recombinant barcode read abundance (log10) of no less than 0.3? label 0

Could you verify whether the entry GGCAGGTCTTGGGTTCTAACCTGTTGCTT (site GGCAGTTCTAA) shows recombinant barcode read abundance (log10) of no less than 0.3? label 0
